Biological target: soybean lipoxygenase (LOX) (Glycine max)
Construct: gene LOX1.1; commercial native soybean enzyme (Sigma), catalogue number or type not given; 13-hydroperoxylinoleate product points to LOX-1
Sequence (P08170 whole entry): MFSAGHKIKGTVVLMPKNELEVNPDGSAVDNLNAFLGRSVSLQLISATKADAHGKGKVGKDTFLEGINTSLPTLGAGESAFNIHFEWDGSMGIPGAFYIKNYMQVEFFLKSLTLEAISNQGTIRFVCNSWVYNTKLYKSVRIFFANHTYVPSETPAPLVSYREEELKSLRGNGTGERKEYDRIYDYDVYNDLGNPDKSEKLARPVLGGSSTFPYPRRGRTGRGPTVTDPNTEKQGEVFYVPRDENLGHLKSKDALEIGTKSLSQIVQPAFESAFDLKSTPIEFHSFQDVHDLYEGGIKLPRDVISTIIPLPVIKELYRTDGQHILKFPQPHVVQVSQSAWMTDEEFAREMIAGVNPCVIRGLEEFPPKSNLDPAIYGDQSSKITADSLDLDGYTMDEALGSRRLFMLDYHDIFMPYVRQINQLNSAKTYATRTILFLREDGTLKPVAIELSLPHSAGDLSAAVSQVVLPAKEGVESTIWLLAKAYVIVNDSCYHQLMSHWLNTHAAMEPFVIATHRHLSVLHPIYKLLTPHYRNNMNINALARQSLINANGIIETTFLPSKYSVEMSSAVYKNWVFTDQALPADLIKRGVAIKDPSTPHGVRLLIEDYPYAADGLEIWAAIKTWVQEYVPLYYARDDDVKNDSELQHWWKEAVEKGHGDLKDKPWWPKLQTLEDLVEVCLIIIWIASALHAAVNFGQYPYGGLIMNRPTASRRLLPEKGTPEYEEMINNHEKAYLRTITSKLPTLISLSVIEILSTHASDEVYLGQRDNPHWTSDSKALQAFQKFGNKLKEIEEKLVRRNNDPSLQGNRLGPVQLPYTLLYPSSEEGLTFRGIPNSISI
Test: UV absorbance at […] nm
Format: biochemical
Conditions: 0.1 mM compound; sodium linoleate; room temperature
Property: % LOX ± SD Inhbt @ (0.1 mM); scope: individual compounds
Write the answer as a number in %, unit excluded.

compound: O=C(/C=C/c1ccc(O)cc1)OC[C@H]1O[C@@H](Oc2c(-c3ccc(O)cc3)oc3cc(O)cc(O)c3c2=O)[C@H](O)[C@@H](O)[C@@H]1O [compound 19, tiliroside]
% LOX ± SD Inhbt @ (0.1 mM) [%]: 8
--
compound: C[C@@H]1O[C@@H](OC[C@H]2O[C@@H](Oc3c(-c4ccc(O)cc4)oc4cc(O)cc(O)c4c3=O)[C@H](O)[C@@H](O)[C@@H]2O)[C@H](O)[C@H](O)[C@H]1O [compound 17, kaempferol-3-O-β-rutinoside]
% LOX ± SD Inhbt @ (0.1 mM) [%]: 46
--
compound: O=C(O)/C=C/c1ccc(O)cc1
% LOX ± SD Inhbt @ (0.1 mM) [%]: 18
--
compound: O=C(O[C@@H]1O[C@H](CO)[C@@H](O)[C@H](O)[C@H]1O)c1ccccc1 [compound 5, benzoate glucoside]
% LOX ± SD Inhbt @ (0.1 mM) [%]: 29
--
compound: CC1=CC(=O)CC(C)(C)[C@@]1(O)/C=C/C(C)=C\CO[C@@H]1O[C@H](CO)[C@@H](O)[C@H](O)[C@H]1O [compound 16, abscisic alcohol glucoside]
% LOX ± SD Inhbt @ (0.1 mM) [%]: 25

Moving on to the next compound.
query: May I ask what % LOX ± SD Inhbt @ (0.1 mM) has been recorded for O=C(O)/C=C/c1ccc(O[C@@H]2O[C@H](CO)[C@@H](O)[C@H](O)[C@H]2O)cc1 ?
result: 100
